Origin of the recorded values: ChEMBL document CHEMBL3297705

Test: Half life in NCR nude mouse at 30 mg/kg, po
Type: ADME, organism-based
Parameters: dose 30 mg/kg, route oral
Conditions: in vivo
outcome.measure: half-life (h)
Give just the numeric value; h need not be written.

Input line: Query: half-life; subject: O=C(N[C@H](CO)c1ccc(Cl)c(F)c1)N1CCc2cnc(NC3CCOCC3)nc2C1
Output line: 2.4

* * *

Test: Tmax in beagle dog at 2 mg/kg, po
Type: ADME, organism-based, Canis lupus familiaris
Design: dose 2 mg/kg, route oral
Conditions: in vivo
outcome.measure: Tmax (min)
Output spec: scalar in min, unitless text.

Input line: May I ask what Tmax has been recorded for O=C(N[C@H](CO)c1ccc(Cl)c(F)c1)N1CCc2cnc(NC3CCOCC3)nc2C1 ?
Output line: 25.2

* * *

Entries with their measured IC50, system Mitogen-activated protein kinase 1 (Homo sapiens, UniProt P28482):

Example results:
entry.smiles: C[C@@H](CO)Nc1ncc2c(n1)CN(C(=O)N[C@H](C)c1ccc(Cl)c(Cl)c1)CC2
IC50: 1 nM
--
entry.smiles: CNc1ncc2c(n1)CN(C(=O)N[C@H](CO)c1ccc(F)c(Cl)c1)CC2
IC50: 43 nM

Input line: Which measured IC50 belongs to CC(C)(C)Nc1ncc2c(n1)CN(C(=O)N[C@H](CO)c1ccc(F)c(Cl)c1)CC2 , tested on Mitogen-activated protein kinase 1 (Homo sapiens, UniProt P28482)?
Output line: 41 nM

Input line: Reported IC50 for Mitogen-activated protein kinase 1 (Homo sapiens, UniProt P28482), given CC[C@@H](NC(=O)N1CCc2cnc(N[C@@H](C)CO)nc2C1)c1ccc(F)c(F)c1 ?
Output line: 3 nM

Input line: Hi! What's the reported IC50 for O=C(N[C@H](CO)c1ccc(F)c(Cl)c1)N1CCc2cnc(Nc3ccc(F)cc3)nc2C1 on Mitogen-activated protein kinase 1 (Homo sapiens, UniProt P28482)?
Output line: 3 nM

* * *

Test: Cmax in NCR nude mouse at 150 mg/kg, po
Assay type: ADME, organism-based
Design: dose 150 mg/kg, route oral
Settings: in vivo
outcome.measure: Cmax (µM)
Express your answer in µM, writing the number without its unit.

Input line: Which Cmax value belongs to O=C(N[C@H](CO)c1ccc(Cl)c(F)c1)N1CCc2cnc(NC3CCOCC3)nc2C1 ?
Output line: 13.9

* * *

Experiment: AUC (0 to infinity) in beagle dog at 2 mg/kg, po
Format: ADME, organism-based, Canis lupus familiaris
Parameters: dose 2 mg/kg, route oral, time infinity
Conditions: plasma
outcome.measure: AUC(0-inf)

Input line: Which AUC(0-inf) is listed for O=C(N[C@H](CO)c1ccc(Cl)c(F)c1)N1CCc2cnc(NC3CCOCC3)nc2C1 ?
Output line: 0.61 µM·h

* * *

Measured IC50 on Mitogen-activated protein kinase 1 (Homo sapiens, UniProt P28482) follows.
Sequence (P28482 whole entry): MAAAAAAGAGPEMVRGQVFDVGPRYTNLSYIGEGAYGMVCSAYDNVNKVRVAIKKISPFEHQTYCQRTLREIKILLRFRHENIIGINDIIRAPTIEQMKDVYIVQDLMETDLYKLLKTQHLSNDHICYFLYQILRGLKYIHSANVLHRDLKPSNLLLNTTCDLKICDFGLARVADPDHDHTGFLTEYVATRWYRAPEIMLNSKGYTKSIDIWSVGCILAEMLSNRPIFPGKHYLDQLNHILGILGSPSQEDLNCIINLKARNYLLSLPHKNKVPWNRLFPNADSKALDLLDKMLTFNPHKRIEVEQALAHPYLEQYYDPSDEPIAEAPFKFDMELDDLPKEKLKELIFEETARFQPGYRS
Answer with a number only, understood to be in nM.

entry.smiles: CCNc1ncc2c(n1)CN(C(=O)N[C@H](CO)c1ccc(F)c(Cl)c1)CC2
quantitative.result: 753

Input line: So what IC50 did CC(C)Nc1ncc2c(n1)CN(C(=O)N[C@H](CNS(C)(=O)=O)c1ccc(F)c(Cl)c1)CC2 get with Mitogen-activated protein kinase 1 (Homo sapiens, UniProt P28482)?
Output line: 917

Input line: Form entry - test system: Mitogen-activated protein kinase 1 (Homo sapiens, UniProt P28482); read-out: IC50; compound: CC(C)Nc1ncc2c(n1)CN(C(=O)NCc1ccc(Cl)c(F)c1)CC2
Output line: 1630

Input line: Query for Mitogen-activated protein kinase 1 (Homo sapiens, UniProt P28482): what IC50 does the record show for CC(C)Nc1ncc2c(n1)CN(C(=O)NCc1ccc(Cl)cc1)CC2 ?
Output line: 2140

Input line: What IC50 appears in the records for this compound with Mitogen-activated protein kinase 1 (Homo sapiens, UniProt P28482)? CC(C)Nc1ncc2c(n1)CN(C(=O)N[C@H](CN)c1ccc(F)c(Cl)c1)CC2
Output line: 356

Input line: Param readout= IC50; system= Mitogen-activated protein kinase 1 (Homo sapiens, UniProt P28482); entry= C[C@@H](NC(=O)N1CCc2cnc(NC3CCOCC3)nc2C1)c1ccc2cc[nH]c2c1 ; returns value.
Output line: 21

Input line: Could you share what IC50 was measured for C[C@@H](NC(=O)N1CCc2cnc(N[C@H]3CCO[C@@H](CO)C3)nc2C1)c1ccc(Cl)c(Cl)c1 , tested on Mitogen-activated protein kinase 1 (Homo sapiens, UniProt P28482)?
Output line: 7

Input line: Given the entry Cc1cc(Nc2ncc3c(n2)CN(C(=O)N[C@H](CO)c2ccc(F)c(Cl)c2)CC3)ccn1 , what IC50 was observed with Mitogen-activated protein kinase 1 (Homo sapiens, UniProt P28482)?
Output line: 445

Input line: Form: Entry = C[C@@H](NC(=O)N1CCc2cnc(Nc3cnn(C)c3)nc2C1)c1ccc(Cl)c(Cl)c1 | System = Mitogen-activated protein kinase 1 (Homo sapiens, UniProt P28482) | IC50 = ____
Output line: 35

* * *

Assay: AUC (0 to infinity) in cynomolgus monkey at 3 mg/kg, po
Format: ADME, organism-based, Macaca fascicularis
Parameters: dose 3 mg/kg, route oral, time infinity
Conditions: plasma
outcome.measure: AUC(0-inf) (µM·h)
Express the result in µM·h but write the number alone.

Input line: May I ask what AUC(0-inf) has been recorded for O=C(N[C@H](CO)c1ccc(Cl)c(F)c1)N1CCc2cnc(NC3CCOCC3)nc2C1 ?
Output line: 0.65

* * *

This listing pairs molecules with measured IC50.
Biological target: Mitogen-activated protein kinase 1 (Homo sapiens)
Lab book: enter the figure in nM, no units written.

entry.smiles: CNc1ncc2c(n1)CN(C(=O)N[C@H](CO)c1ccc(F)c(Cl)c1)CC2
study.target: Mitogen-activated protein kinase 1 (Homo sapiens)
outcome.measure: IC50
quantitative.result: 2260

entry.smiles: Cn1cc(Nc2ncc3c(n2)CN(C(=O)N[C@H](CO)c2ccc(F)c(Cl)c2)CC3)cn1
study.target: Mitogen-activated protein kinase 1 (Homo sapiens)
outcome.measure: IC50
quantitative.result: 247

Shifting focus to the molecule that follows.
Input line: Enter reported IC50 observed with Mitogen-activated protein kinase 1 (Homo sapiens) for CC(C)Nc1ncc2c(n1)CN(C(=O)NCc1ccc(F)c(Cl)c1)CC2
Output line: 1220

* * *

Test: Plasma protein binding in human
Type: ADME, cell-free
Settings: read-out: PPB (converted)
Group membership follows fraction unbound per the scheme bottom (below 0.02), middle (0.02 to below 0.08), top (0.08 or more)

Recorded results for 8 molecules are shown here.
entry.smiles: CC[C@@H](NC(=O)N1CCc2cnc(N[C@@H](C)CO)nc2C1)c1ccc(F)c(F)c1
group: top

entry.smiles: C[C@@H](CO)Nc1ncc2c(n1)CN(C(=O)N[C@H](C)c1ccc(Cl)c(Cl)c1)CC2
group: middle

entry.smiles: C[C@@H](NC(=O)N1CCc2cnc(Nc3cnn(C)c3)nc2C1)c1ccc(Cl)c(Cl)c1
group: bottom

entry.smiles: O=C(N[C@H](CO)c1ccc(Cl)c(Cl)c1)N1CCc2cnc(NC3CCOCC3)nc2C1
group: top

entry.smiles: C[C@@H](NC(=O)N1CCc2cnc(Nc3ccnn3C)nc2C1)c1ccc(Cl)c(Cl)c1
group: bottom

entry.smiles: C[C@@H](CO)Nc1ncc2c(n1)CN(C(=O)N[C@H](C)c1ccc(C(F)(F)F)c(F)c1)CC2
group: bottom

entry.smiles: Cc1cc(Nc2ncc3c(n2)CN(C(=O)N[C@H](C)c2ccc(Cl)c(Cl)c2)CC3)ccn1
group: bottom

entry.smiles: C[C@@H](NC(=O)N1CCc2cnc(NC3CCOCC3)nc2C1)c1ccc(Cl)c(F)c1
group: top

Now consider a different molecule.
Input line: Classify this molecule: CC[C@@H](NC(=O)N1CCc2cnc(N[C@@H](C)CO)nc2C1)c1ccc(Cl)c(Cl)c1
Output line: middle

* * *

Test: Oral bioavailability in NCR nude mouse at 30 mg/kg
Type: ADME, organism-based
Details: in vivo
outcome.measure: bioavailability (%)
Give just the numeric value; % need not be written.

Input line: Give the measured bioavailability of O=C(N[C@H](CO)c1ccc(Cl)c(F)c1)N1CCc2cnc(NC3CCOCC3)nc2C1 .
Output line: 58

* * *

Test: Clearance in NCR nude mouse at 1 mg/kg, iv
Type: ADME, organism-based
Set-up: dose 1 mg/kg, route intravenous
Details: in vivo
outcome.measure: clearance (mL/min/kg)
Supply the numeric figure in mL/min/kg, leaving out any unit text.

Input line: Dear colleague, I am looking for the recorded clearance of the following molecule: O=C(N[C@H](CO)c1ccc(Cl)c(F)c1)N1CCc2cnc(NC3CCOCC3)nc2C1
Output line: 134

* * *

Assay: Clearance in cynomolgus monkey at 1 mg/kg, iv
Type: ADME, organism-based, Macaca fascicularis
Parameters: dose 1 mg/kg, route intravenous
Details: in vivo
outcome.measure: clearance (mL/min/kg)
Give the number; mL/min/kg is assumed, so skip it.

Input line: I'd like to know its clearance. The compound in question is O=C(N[C@H](CO)c1ccc(Cl)c(F)c1)N1CCc2cnc(NC3CCOCC3)nc2C1
Output line: 33
